test system: OVCAR-5 ovarian; assay: NCI tumour cell line growth inhibition, 48 h
Reported TGI values are given for each entry in this list.

- compound: "CN1C[C@@H]2CCCN2P1Oc1cccc2cccnc12 (stereo partly specified)"
  TGI: "> 100 µM"
- compound: "CC(=O)Oc1c(OC(C)=O)c(-c2ccc(O)c(O)c2)c(O)c(O)c1-c1ccc(O)cc1"
  TGI: "> 100 µM"
- compound: "Cc1nc(-c2nc([N+](=O)[O-])c([N+](=O)[O-])[nH]2)cs1"
  TGI: "> 100 µM"
- compound: "COc1ccc(C(=O)C=C2NCCN2)cc1"
  TGI: "> 100 µM"
- compound: "Cc1cccc2c1C(=O)C(C1OC(=O)c3ccccc31)C2 (stereo unspecified)"
  TGI: "> 100 µM"
- compound: "CC(C)[Si]1(C(C)C)OCC2OC(n3ccc(=O)[nH]c3=O)C(O)(CO)C2O[Si](C(C)C)(C(C)C)O1 (stereo unspecified)"
  TGI: "29.5 µM"
- compound: "Cc1ccc(NC(=O)C(=O)Cc2nc3ccccc3o2)c(C)c1"
  TGI: "> 100 µM"
- compound: "COc1cc(Br)c(CC2=NCCc3cc(OC)c(OC)cc32)cc1OC"
  TGI: "> 100 µM"
- compound: "COC(=O)C1=C(O)C(C(=O)OC)[C@]2(O)[C@H](C(=O)OC)[C@H]1C[C@@H](c1ccc(OC)cc1)[C@H]2C(=O)OC (stereo partly specified)"
  TGI: "51.9 µM"
- compound: "CN(/N=C\\c1ccc2ccccc2c1)C1=NCCCCN1"
  TGI: "> 100 µM"
- compound: "COC1=C(OC)CCC(/C(C#N)=C/c2ccc(OC)c(OC)c2)=C1"
  TGI: "> 100 µM"
- compound: "O=C1C2=C(c3ccccc31)C(c1ccccc1Cl)N1C(=O)CSC1=N2 (stereo unspecified)"
  TGI: "> 100 µM"
- compound: "Cc1ccc2c(O)c3c(cc2c1)C(=O)c1c2c(cc(O)c1C3=O)C1(C)OC(O2)C(O)C(N(C)C)C1O (stereo unspecified)"
  TGI: "3.73 µM"
- compound: "COc1ccccc1-n1c(SCc2cc(OC)c(OC)c(OC)c2)nc2ccc(Cl)cc2c1=O"
  TGI: "> 100 µM"
- compound: "CNC(=O)CN1CC(=O)N(C)C(=O)C1"
  TGI: "> 100 µM"
- compound: "O=C(NC(Nc1ccc(F)c(Cl)c1)(C(F)(F)F)C(F)(F)F)C(C(F)(F)F)C(F)(F)F"
  TGI: "78.1 µM"
- compound: "COc1cc(C2C(C(=O)Nc3ccccc3)=C(C)NC(C)=C2C(=O)Nc2ccccc2)ccc1O"
  TGI: "> 100 µM"
- compound: "CC#CC(=O)N1CCC[C@H]1c1nc(-c2ccc(C(=O)Nc3ccccn3)cc2)c2c(N)nccn12"
  TGI: "> 100 µM"
- compound: "CN(O)C(=O)Cc1ccccc1"
  TGI: "> 100 µM"
- compound: "COc1ccc([C@H]2O[C@@H](CO)C[C@]2(O)c2ccc(OC)cc2)cc1"
  TGI: "> 100 µM"
- compound: "CC[C@@H]1OC2(C)CC(S(=O)(=O)c3ccccc3)CC1O2 (stereo partly specified)"
  TGI: "> 100 µM"

----------
tested on: ACHN renal; experiment: NCI tumour cell line growth inhibition, 48 h; in the data active = GI50 below about 0.43 µM; inactive = the rest
Outcomes: 1 (active), -1 (inactive)

- compound: "C=C(C)C1/C=C(/C(C)C)CC[C@]2(C)O[C@@H]2CC[C@H](C)CC1=O (stereo not given in full)"
  qualitativeLabel: -1
- compound: "C=C(C)[C@H]1CC/C(C)=C/CCC(C)C(=O)CC/C(CO)=C\\[C@@H]1O (stereo not given in full)"
  qualitativeLabel: -1
- compound: "C[Se]C(=O)CC1=C2C=C(F)C=CC2/C(=C\\c2ccc(S(C)=O)cc2)C1C (stereo not given)"
  qualitativeLabel: 1
- compound: "COc1ccc(/C=C2\\N=C3SC=C(N)N3C2=O)cc1"
  qualitativeLabel: -1
- compound: "CN(C)c1ccc(/C=C/c2ccnc3ccccc23)cc1"
  qualitativeLabel: -1
- compound: "Fc1ccc(-c2ncn(C3CCNCC3)c2-c2ccnc(Oc3cccc(F)c3)n2)cc1"
  qualitativeLabel: -1
- compound: "CC(=O)N1CC(F)(F)c2c(Sc3ncc(N4CCC5(CC4)COC[C@H]5N)nc3N)cccc21"
  qualitativeLabel: -1
- compound: "NC(CSC(c1ccccc1)(c1ccccc1)c1ccc2ccccc2c1)C(=O)O (stereo not given)"
  qualitativeLabel: -1
- compound: "O=C(/C=C/c1ccco1)Nc1ncc(Cc2ccc(F)cc2)s1"
  qualitativeLabel: 1
- compound: "COc1ccc2c(c1)OC13Oc4cc(OC)ccc4C=C1CCCC3=C2"
  qualitativeLabel: -1

----------
tested on: NCI-H522 lung; test: NCI tumour cell line growth inhibition, 48 h
measuredQuantity: TGI

- compound: "CCC(=O)NCCc1c[nH]c2ccc(OC)cc12"
  valueObserved: "> 100 µM"
- compound: "NC(=O)N(O)c1cccc(Br)c1"
  valueObserved: "> 100 µM"
- compound: "C[C@@H]1OC(=O)C[C@H]2CC(=O)N(CCc3cn(S(=O)(=O)C(F)(F)F)c4ccccc34)C[C@@H]21"
  valueObserved: "> 100 µM"
- compound: "Nc1ncc(Cc2nc3ccccc3s2)s1"
  valueObserved: "> 100 µM"
- compound: "CCC1(C)N=C(C(N)=O)c2ncn(N=C(C)C)c2N1 (stereo unspecified)"
  valueObserved: "> 100 µM"
- compound: "Cc1cc(C)c(C(=O)OC(c2ccccc2)C(c2ccccc2)N2CCOCC2)c(C)c1 (stereo unspecified)"
  valueObserved: "> 100 µM"
- compound: "COC/C=C\\[C@@]1(O)CCCC[C@@H]1CC(OC)OC"
  valueObserved: "38.4 µM"
- compound: "CC1OC(=O)c2ccccc2NC1=O (stereo unspecified)"
  valueObserved: "> 100 µM"
- compound: "Oc1c(CN2CCCC2)cc(COCc2ccccc2)c2cccnc12"
  valueObserved: "9.97 µM"
- compound: "C=C(C)[C@H]1CC/C(C)=C/CCC(C)C(=O)CC/C(CO)=C\\[C@@H]1O (stereo partly specified)"
  valueObserved: "> 100 µM"
- compound: "CSCCCCCCCCCCOc1ccc(C=C2C(=C(C#N)C#N)c3ccccc3C2=C(C#N)C#N)cc1"
  valueObserved: "38.2 µM"

----------
system: OVCAR-3 ovarian; experiment: NCI tumour cell line growth inhibition, 48 h

- cpdSmiles: "C[C@@H]1CC[C@@]2(OC1)O[C@H]1C[C@H]3[C@@H]4CC=C5C[C@@H](O[C@@H]6O[C@H](CO)[C@@H](O[C@@H]7O[C@@H](CO)[C@H](O)[C@H]7O)[C@H](O)[C@H]6O[C@@H]6O[C@@H](C)[C@H](O)[C@@H](O)[C@H]6O)CC[C@]5(C)[C@H]4CC[C@]3(C)[C@H]1[C@@H]2C"
  GI50: "1.75 µM"
- cpdSmiles: "FC(F)(F)c1ccc(-c2cnc(Br)nc2NC2CCCCCC2)cc1"
  GI50: "70.8 µM"
- cpdSmiles: "CC(=O)Oc1c(OC(C)=O)c(-c2ccc(O)c(O)c2)c(O)c(O)c1-c1ccc(O)cc1"
  GI50: "59.5 µM"

----------
Reported GI50 values are given for each entry in this list.
test system: NCI-H522 lung; test: NCI tumour cell line growth inhibition, 48 h

- compound: "C#Cc1ccc(NC(=O)c2ccc(/C=C/C(=O)c3nccn3C)cc2)cc1"
  GI50: "518 nM"
- compound: "Cn1cnc([N+](=O)[O-])c1Sc1ncnc2c1ncn2C1OC(CO)C(O)C1O (stereo not given)"
  GI50: "9620 nM"
- compound: "CCNCCNc1cc(-c2ccc(F)cc2)c(C#N)c2nc3ccccc3n12"
  GI50: "2930 nM"
- compound: "Cn1c(=O)c2[nH]c(COc3ccc(C(C)(C)C)cc3)nc2n(C)c1=O"
  GI50: "19600 nM"
- compound: "COc1ccc(/C=C2\\COc3ccc(-c4ccccc4)cc3C2=O)cc1O"
  GI50: "2400 nM"

----------
system: A498 renal; assay: NCI tumour cell line growth inhibition, 48 h
Reported GI50 values are given for each entry in this list.

- molecule: "CCNCCNc1cc(-c2ccc(F)cc2)c(C#N)c2nc3ccccc3n12"
  GI50: "4.79 µM"
- molecule: "C[C@H]1[C@@H](OCC(CO[C@H]2O[C@@H]3O[C@@]4(C)CC[C@H]5[C@H](C)CC[C@@H]([C@H]2C)[C@@]35OO4)=NOCC(=O)O)OC2O[C@@]3(C)CC[C@H]4[C@H](C)CC[C@@H]1[C@@]24OO3 (stereo partly drawn)"
  GI50: "1.76 µM"
- molecule: "CC/C=C\\CCC/C=C1/C(=O)C=C[C@@H]1C/C=C\\CCCC(=O)O"
  GI50: "18.4 µM"
- molecule: "c1ccc(-c2nc(N3CCNCC3)c3nc(-c4ccccc4)oc3n2)cc1"
  GI50: "1.42 µM"
- molecule: "COc1ccc(C(O)c2cc3c(N)c(C(=O)Nc4cccc(Br)c4)sc3nc2C)cc1 (stereo not drawn)"
  GI50: "0.0536 µM"
- molecule: "Cn1ccnc1C(=O)/C=C/c1ccc(C(=O)Nc2nc3ccccc3[nH]2)cc1"
  GI50: "4.71 µM"
- molecule: "CCSC1=CC(=O)c2ccccc2C1=O"
  GI50: "16.4 µM"
- molecule: "NC(CSC(c1ccccc1)(c1ccccc1)c1ccc2ccccc2c1)C(=O)O (stereo not drawn)"
  GI50: "0.0529 µM"
